B1: Far upstream element-binding protein 1, residues 184 to 257; numbered along this chain, Q96AE4 (parent)
chain: GNAVQEIMIPASKAGLVIGKGGETIKQLQERAGVKMVMIQDGPQNTGADKPLRITGDPYKVQQAKEMVLELIRD

- Variants of: B1
- experimental details: abundance fitness (aPCA) (normalised: wild type 0, dead -1); higher = more abundant; growth selection in yeast, the domain comes from the species named
- experimental context: Homo sapiens
Recorded abundance fitness by entry
The reply should be a number, written without any unit.

K65C = -0.097
K26G = -0.098
G56F = -0.971
M38I = -0.036
L69A = -0.01
G47L = -0.069
D74Q = -0.059
L71E = -0.089
I25K = -0.371
I54T = -0.723

Given the entry "P43I" , report its measured abundance fitness.
-0.011

Now the same for "K20W"
-0.166

Now the same for "I39H"
-0.095
